B1: CPXM2 (parent)
chain: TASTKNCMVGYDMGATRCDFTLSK

variants of: B1; assay: protein stability index of a GFP-peptide fusion (GPS, HEK-293T) (PSI 1-6); higher = more stable; details: c terminus: a fixed tail appended;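 further: lentivirally expressed fusions sorted by FACS into six bins by GFP to DsRed ratio, PSI derived from sequencing read proportions per bin multiplied by bin number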
Quantity kind: protein stability index
Answers are plain numbers.

Below are worked cases with known answers.
{"Variant": "G10A", "Quantity kind": "protein stability index", "Reported measurement": 1.97}
{"Variant": "C7K", "Quantity kind": "protein stability index", "Reported measurement": 3.18}
{"Variant": "S3R", "Quantity kind": "protein stability index", "Reported measurement": 1.28}
{"Variant": "K24T", "Quantity kind": "protein stability index", "Reported measurement": 1.62}
{"Variant": "D19C", "Quantity kind": "protein stability index", "Reported measurement": 1.91}
{"Variant": "F20D", "Quantity kind": "protein stability index", "Reported measurement": 3.85}
{"Variant": "L22S", "Quantity kind": "protein stability index", "Reported measurement": 2.41}
{"Variant": "R17K", "Quantity kind": "protein stability index", "Reported measurement": 3.28}

I'm hoping you can list protein stability index for every variant here, please.
1. S23H
2. T16H

Marked response:
1. 2.2
2. 2.47

I'm hoping you can list protein stability index for every variant here, please.
1. L22Q
2. N6V
3. T21C
4. F20Y
5. K5R
6. D19F
7. K24Y
8. C18L

Marked response:
1. 2.96
2. 2.16
3. 1.57
4. 2.13
5. 1.59
6. 1.75
7. 2.73
8. 2.4

I'm hoping you can list protein stability index for every variant here, please.
1. K5F
2. A2P
3. K5N
4. L22W

Marked response:
[2.25, 3.08, 2.28, 1.74]

I'm hoping you can list protein stability index for every variant here, please.
1. Y11W
2. M13V
3. M13K
4. M8G

Marked response:
2.23
3.02
1.91
2.08

I'm hoping you can list protein stability index for every variant here, please.
1. G10W
2. V9H
3. G10F
4. G10Y
5. N6Y
6. M8K

Marked response:
1. 1.64
2. 2.3
3. 1.58
4. 3.56
5. 1.68
6. 3.26

I'm hoping you can list protein stability index for every variant here, please.
1. K5E
2. T4M
3. S3H
4. D12Y
5. G14P
6. T4D
7. T1C
8. R17D

Marked response:
3.21
2.58
1.97
1.69
2.84
3.17
1.68
3.96

I'm hoping you can list protein stability index for every variant here, please.
1. A15M
2. K24F
3. Y11L
4. A15N
5. M8W

Marked response:
2.07
4.01
2.41
2.62
2.15

I'm hoping you can list protein stability index for every variant here, please.
1. S3K
2. V9M
3. T4P
4. M13A
5. C7E
6. D19A

Marked response:
[1.99, 2.42, 2.47, 2.74, 4.44, 2.9]

Source of measurements: the supplement of paper PMC10567573
